- experiment.notes: in vitro
- condition.label: human, hela cells, % viability

>  <compound>
O=C(CSCc1ccccc1)Nc1ccc2c3c(cccc13)CC2 [CBK264916]

>  <viability at 28.5 h, 10 µM (%)>
107

$$$$
>  <compound>
CCOC(=O)c1cnn2c(O)cc(CN(CC(C)(C)O)C(C)C)nc12 [CBK306133]

>  <viability at 28.5 h, 10 µM (%)>
93.6

$$$$
>  <compound>
Fc1ccccc1CN(CCCn1ccnc1)Cc1cccnc1 [CBK283099]

>  <viability at 28.5 h, 10 µM (%)>
90.4

$$$$
>  <compound>
COc1cccc(Nc2cc(-c3ccco3)ncn2)c1OC [CBK090727]

>  <viability at 28.5 h, 10 µM (%)>
92.2

$$$$
>  <compound>
COC(=O)c1cc(C(=O)Nc2ccc(OCCC(N)=O)cc2)c[nH]1 [CBK305486]

>  <viability at 28.5 h, 10 µM (%)>
103

$$$$
>  <compound>
CN1CCN(C(=O)c2ccc(-c3nccnc3NCCc3cccnc3)cc2)CC1 [CBK036838]

>  <viability at 28.5 h, 10 µM (%)>
97.2

$$$$
>  <compound>
Cc1cc(C)n(CC(O)CN(Cc2ccccc2)Cc2ccco2)n1 (stereo not shown) [CBK282957]

>  <viability at 28.5 h, 10 µM (%)>
95.7

$$$$
>  <compound>
O=C(NCCc1ccc(O)cc1)c1ccc2[nH]ccc2c1 [CBK149063]

>  <viability at 28.5 h, 10 µM (%)>
89.5

$$$$
>  <compound>
O=C(Nc1ccccc1Oc1ccc(F)cc1)c1ccc(Cn2cncn2)cc1 [CBK285587]

>  <viability at 28.5 h, 10 µM (%)>
118

$$$$
>  <compound>
O=C(c1ccco1)N1CCC2(CC1)Nc1cccnc1-n1cccc12 [CBK284506]

>  <viability at 28.5 h, 10 µM (%)>
85.3

$$$$

----------
- experiment.notes: in vitro
- condition.label: human, hela cells, % viability

>  <compound>
COc1ccc(OC)c(NC(=O)Cn2cc(C(C)=O)c3ccccc32)c1

>  <unit.tag>
%

>  <viability at 28.5 h, 10 µM>
92.5

$$$$
>  <compound>
CC(=O)Nc1ccc(-c2cncc(Nc3ccc4c(c3)OC(F)(F)C(F)(F)O4)n2)cc1

>  <unit.tag>
%

>  <viability at 28.5 h, 10 µM>
98.7

$$$$
>  <compound>
CC1(C)CCN(Cc2ccccc2)C1CC#N (stereo not shown) [CBK006978C]

>  <unit.tag>
%

>  <viability at 28.5 h, 10 µM>
102

$$$$
>  <compound>
CC(=O)Nc1ccc(S(=O)(=O)NCC#N)cc1Cl

>  <unit.tag>
%

>  <viability at 28.5 h, 10 µM>
97.3

$$$$
>  <compound>
O=c1cnn([C@H]2C[C@@H](O)[C@@H](CO)O2)c(=O)[nH]1

>  <unit.tag>
%

>  <viability at 28.5 h, 10 µM>
93.4

$$$$
>  <compound>
O=C(CCN1CCCCC1)Nc1cnc(-c2ccc(F)cc2)c(-c2ccsc2)n1

>  <unit.tag>
%

>  <viability at 28.5 h, 10 µM>
90.3

$$$$
>  <compound>
Cc1nnc(SCc2cc(=O)nc(Nc3nc(C)c4ccccc4n3)[nH]2)s1

>  <unit.tag>
%

>  <viability at 28.5 h, 10 µM>
103

$$$$
>  <compound>
CC(=O)Nc1cccc(-c2cn3ccnc3c(N[C@@H](CO)C(C)C)n2)c1

>  <unit.tag>
%

>  <viability at 28.5 h, 10 µM>
106

$$$$
>  <compound>
O=C(C1=C(O)C(=O)N(CCCn2ccnc2)C1c1cccs1)c1ccc2c(c1)OCCO2 (stereo not shown)

>  <unit.tag>
%

>  <viability at 28.5 h, 10 µM>
92

$$$$
>  <compound>
COc1ccccc1-c1ccc(CC2(C(=O)NCCc3ccc(F)cc3)CCOCC2)cc1

>  <unit.tag>
%

>  <viability at 28.5 h, 10 µM>
94.4

$$$$
>  <compound>
Cc1cccc(NCC(O)Cn2c3ccc(Br)cc3c3cc(Br)ccc32)c1 (stereo not shown)

>  <unit.tag>
%

>  <viability at 28.5 h, 10 µM>
94.5

$$$$
>  <compound>
Cc1ccc2c(c1)C(=O)CC1(CCN(C(=O)Cc3c(C)[nH]c(=O)[nH]c3=O)CC1)O2

>  <unit.tag>
%

>  <viability at 28.5 h, 10 µM>
91.6

$$$$
>  <compound>
CC1CCc2noc(C3CCCN(C(=O)c4ccco4)C3)c2C1 (stereo not shown)

>  <unit.tag>
%

>  <viability at 28.5 h, 10 µM>
110

$$$$
>  <compound>
O=C(N[C@@H]1CNCCC[C@H]1O)c1ccc(OCCN2CCCC2)cc1

>  <unit.tag>
%

>  <viability at 28.5 h, 10 µM>
101

$$$$
>  <compound>
Cc1ccc(N(CC(=O)NCC2CCCO2)S(C)(=O)=O)cc1 (stereo not shown)

>  <unit.tag>
%

>  <viability at 28.5 h, 10 µM>
88.1

$$$$
>  <compound>
COc1ccccc1C1(NC(=O)c2c(C)noc2C)CCCC1

>  <unit.tag>
%

>  <viability at 28.5 h, 10 µM>
95

$$$$
>  <compound>
CS(=O)(=O)N(CC(=O)NCc1ccccn1)Cc1ccc(Cl)cc1

>  <unit.tag>
%

>  <viability at 28.5 h, 10 µM>
94.6

$$$$
>  <compound>
CC[C@H](C)[C@H](NC(=O)C1CCN(S(=O)(=O)c2ccc(Cl)c(C(F)(F)F)c2)CC1)C(=O)O

>  <unit.tag>
%

>  <viability at 28.5 h, 10 µM>
91.5

$$$$
>  <compound>
CCOC(=O)c1[nH]c2ccccc2c1NC(=O)[C@@H]1CCCN1C [CBK160171T]

>  <unit.tag>
%

>  <viability at 28.5 h, 10 µM>
84.9

$$$$
>  <compound>
CC(C)Nc1cncc(Sc2ccccc2O)n1

>  <unit.tag>
%

>  <viability at 28.5 h, 10 µM>
88

$$$$
>  <compound>
Cc1ccc(S(=O)(=O)N(CC(=O)Nc2cccnc2)c2ccc(F)cc2)cc1

>  <unit.tag>
%

>  <viability at 28.5 h, 10 µM>
85.6

$$$$
>  <compound>
CCN1C(=O)C2(CC(=O)N(CCOC)C2=O)c2cc(Cl)ccc21 (stereo not shown)

>  <unit.tag>
%

>  <viability at 28.5 h, 10 µM>
121

$$$$
>  <compound>
CN(C)C(=O)CSc1nnc(-c2cccc3ccccc23)n1-c1ccccc1

>  <unit.tag>
%

>  <viability at 28.5 h, 10 µM>
92

$$$$
>  <compound>
Cn1c(CN2CCN(C(=O)NC3CCCCC3)CC2)nc2cc([N+](=O)[O-])ccc21

>  <unit.tag>
%

>  <viability at 28.5 h, 10 µM>
97.1

$$$$
>  <compound>
COc1cccc(-c2csc(NS(=O)(=O)c3ccc(C)c(C(=O)O)c3)n2)c1

>  <unit.tag>
%

>  <viability at 28.5 h, 10 µM>
99.1

$$$$
>  <compound>
CC(C)C12CN3CC(C(C)C)(CN(C1)C3c1c[nH]c3ccccc13)C2=O (stereo not shown)

>  <unit.tag>
%

>  <viability at 28.5 h, 10 µM>
96.1

$$$$
>  <compound>
CN1CCN(NC(=O)COc2ccc(Br)cc2Cl)CC1

>  <unit.tag>
%

>  <viability at 28.5 h, 10 µM>
92.6

$$$$
>  <compound>
NC1=NN2C(=C(c3ccc(O)c(C(=O)O)c3)NN2c2ccccc2)N1

>  <unit.tag>
%

>  <viability at 28.5 h, 10 µM>
95.2

$$$$
>  <compound>
CCC(Sc1nnc(-c2ccc([N+](=O)[O-])cc2)n1C)C(=O)Nc1ccc(Cl)cc1 (stereo not shown)

>  <unit.tag>
%

>  <viability at 28.5 h, 10 µM>
101

$$$$
>  <compound>
Cc1nc(CN2CCC(Cc3ccccc3)CC2)cs1

>  <unit.tag>
%

>  <viability at 28.5 h, 10 µM>
95.7

$$$$
>  <compound>
O=C(Nc1ccc(F)cc1)C1CC(=O)n2c(nc3ccccc32)N1 (stereo not shown)

>  <unit.tag>
%

>  <viability at 28.5 h, 10 µM>
101

$$$$
>  <compound>
CC(C)[C@@H](N)Cn1nnc2ccccc21

>  <unit.tag>
%

>  <viability at 28.5 h, 10 µM>
82.7

$$$$
>  <compound>
COc1ccc(C(=O)N2CCC3(CCCN(C(=O)Cn4cc(C)c(=O)[nH]c4=O)C3)C2)cc1OC (stereo not shown)

>  <unit.tag>
%

>  <viability at 28.5 h, 10 µM>
107

$$$$
>  <compound>
Cc1nn(C)c(C)c1OCC(=O)Nc1sc2c(c1C#N)CCC2

>  <unit.tag>
%

>  <viability at 28.5 h, 10 µM>
79.4

$$$$
>  <compound>
Cc1c(C(=O)Nc2ccccn2)sc2nc(-c3ccccc3)cn12

>  <unit.tag>
%

>  <viability at 28.5 h, 10 µM>
98.3

$$$$
>  <compound>
CN(C)c1ccc(C(=O)N2C3CCC2CC(O)(c2ccco2)C3)cc1 (stereo not shown)

>  <unit.tag>
%

>  <viability at 28.5 h, 10 µM>
93.3

$$$$
>  <compound>
CCC(Oc1ccccc1)C(=O)Nc1sc2c(c1C#N)CCCC2 (stereo not shown)

>  <unit.tag>
%

>  <viability at 28.5 h, 10 µM>
87.5

$$$$

Attribution: paper PMC12040169
